Exercise: for every item that follows, state its recorded Minimum Precipitating Concentration.
# Target desc: pneumolysin (Ply) (Streptococcus pneumoniae serotype 2, UniProt Q04IN8)
# Construct: made in house; host or cells: E. coli BL21(DE3)
# Sequence (Q04IN8 whole entry): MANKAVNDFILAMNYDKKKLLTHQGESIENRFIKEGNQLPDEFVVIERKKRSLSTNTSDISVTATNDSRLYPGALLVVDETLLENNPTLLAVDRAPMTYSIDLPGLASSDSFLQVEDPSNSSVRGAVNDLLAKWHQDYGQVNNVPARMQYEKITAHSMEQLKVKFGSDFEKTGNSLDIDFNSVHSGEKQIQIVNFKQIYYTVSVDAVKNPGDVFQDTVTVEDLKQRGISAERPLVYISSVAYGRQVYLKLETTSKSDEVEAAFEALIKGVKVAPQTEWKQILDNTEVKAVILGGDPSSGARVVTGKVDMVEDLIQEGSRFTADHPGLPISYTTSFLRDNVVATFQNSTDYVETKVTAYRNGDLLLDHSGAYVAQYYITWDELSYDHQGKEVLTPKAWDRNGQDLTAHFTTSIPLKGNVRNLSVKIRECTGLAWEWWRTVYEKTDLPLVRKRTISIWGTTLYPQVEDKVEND
# Protocol: Precipitation assay of pneumolysin-tannin interaction
# Format: binding
# Stated conditions: 10 μM Ply, Na-acetate buffer pH 5.0, 25 °C, 30 min, absorbance 414 nm
One number for each entry, in µM.

Lab note: each compound below needs its Minimum Precipitating Concentration filled in.
1. O=C(O[C@@H]1O[C@@H]2COC(=O)c3cc(O)c(O)c(O)c3-c3c(cc(O)c(O)c3O)C(=O)O[C@H]2[C@H](OC(=O)c2cc(O)c(O)c(O)c2)[C@H]1OC(=O)c1cc(O)c(O)c(O)c1)c1cc(O)c(O)c(Oc2c(C(=O)O[C@H]3O[C@@H]4COC(=O)c5cc(O)c(O)c(O)c5-c5c(cc(O)c(O)c5O)C(=O)O[C@H]4[C@@H]4OC(=O)c5cc(O)c(O)c(O)c5-c5c(cc(O)c(O)c5O)C(=O)O[C@@H]34)cc(O)c(O)c2O)c1 [Gemin A]
2. O=C(O[C@H]1[C@@H]2OC(=O)c3cc(O)c(O)c(O)c3-c3c4cc(c(O)c3O)Oc3c(cc(O)c(O)c3O)C(=O)O[C@H]3C(O)O[C@@H]5COC(=O)c6cc(O)c(O)c(O)c6-c6c(cc(c(O)c6O)Oc6c(cc(O)c(O)c6O)C(=O)O[C@H]1C(O)O[C@@H]2COC4=O)C(=O)O[C@H]5[C@@H]3OC(=O)c1cc(O)c(O)c(O)c1)c1cc(O)c(O)c(O)c1 (stereo partly drawn) [Oenothein B]
3. O=C1OCC2OC(=O)c3cc(O)c(O)c(O)c3-c3c(O)c(O)c(O)c4c3C(=O)OC(C2OC(=O)c2cc(O)c(O)c(O)c2-c2c1cc(O)c(O)c2O)C1OC(=O)c2c-4c(O)c(O)c(O)c2C1O (stereo not drawn) [Vescalagin]

[6.2, 510, 820]
